value.type: melting point

Lab note: each compound below needs its melting point filled in.
1. CN(C)C(=O)COc1cccc2c1CCN2c1nc(-c2ccc(F)c(F)c2)nc2c1CS(=O)(=O)C2 [Compound No. 2-12]
2. COc1ccc(-c2nc3c(c(N4CCc5cc(CC(=O)O)ccc54)n2)CS(=O)(=O)C3)cc1 [Compound No. 1-12]
3. CN(C)C(=O)COc1cccc2c1CCN2c1nc(-c2cccc(F)c2)nc2c1CS(=O)(=O)C2 [Compound No. 2-4]

Ans.
212 to 217 °C
239 to 243 °C
237 to 245 °C

So, CN(C)C(=O)COc1cccc2c1CCN2c1nc(-c2cccc(Cl)c2)nc2c1CS(=O)(=O)C2 [Compound No. 2-6] ? Its melting point was 222 to 226 °C

* * *

- experimental.system: human PDE4B1 (Homo sapiens)
- Construct: host or cells: Sf9 cells
- Sequence (Q07343 whole entry): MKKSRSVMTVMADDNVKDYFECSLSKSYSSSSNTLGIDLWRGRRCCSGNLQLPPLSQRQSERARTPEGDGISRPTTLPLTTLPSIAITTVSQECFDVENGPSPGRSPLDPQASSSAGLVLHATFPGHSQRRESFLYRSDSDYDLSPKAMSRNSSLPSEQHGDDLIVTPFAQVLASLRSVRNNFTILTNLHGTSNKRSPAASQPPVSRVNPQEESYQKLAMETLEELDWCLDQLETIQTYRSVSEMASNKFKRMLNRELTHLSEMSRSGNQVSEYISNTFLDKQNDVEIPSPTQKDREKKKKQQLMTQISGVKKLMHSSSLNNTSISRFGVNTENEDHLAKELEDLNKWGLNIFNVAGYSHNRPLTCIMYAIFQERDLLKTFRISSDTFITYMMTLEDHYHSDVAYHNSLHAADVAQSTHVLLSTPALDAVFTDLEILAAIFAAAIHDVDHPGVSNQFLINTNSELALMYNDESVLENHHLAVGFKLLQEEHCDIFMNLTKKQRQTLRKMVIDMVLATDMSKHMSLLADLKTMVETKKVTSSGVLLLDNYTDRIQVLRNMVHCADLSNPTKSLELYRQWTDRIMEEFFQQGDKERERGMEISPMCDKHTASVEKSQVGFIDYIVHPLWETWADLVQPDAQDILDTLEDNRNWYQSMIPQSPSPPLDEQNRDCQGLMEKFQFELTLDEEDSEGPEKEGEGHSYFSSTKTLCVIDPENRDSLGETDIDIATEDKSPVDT
- experiment.summary: cAMP HTRF assay to determine the activity of hPDE4B1
- Format: biochemical
- reported.conditions: dose response measurements with eight concentrations; reported as ranges; read-out: IC50
pIC50: −log10 of the molar value.
Exercise: for every item that follows, state its recorded pIC50.

Known pIC50 results, listed for orientation:
INSERT INTO measurements (compound, experimental_system, value_type, result) VALUES
  ('CN(C(=O)COc1ccc2c(c1)N(c1nc(-c3ccc(Cl)s3)nc3c1CS(=O)(=O)C3)CC2)C1CC1', 'human PDE4B1 (Homo sapiens)', 'pIC50', '6.00 to 7.00'),
  ('CN(C)C(=O)COc1ccc2cnn(-c3nc(-c4ccc(Cl)s4)nc4c3C[S+]([O-])C4)c2c1 (centres unmarked)', 'human PDE4B1 (Homo sapiens)', 'pIC50', '> 7.00'),
  ('CN(C)C(=O)COc1ccc2c(c1)N(c1nc(-c3ccc4cc[nH]c4c3)nc3c1C[S+]([O-])C3)CC2 (centres unmarked)', 'human PDE4B1 (Homo sapiens)', 'pIC50', '> 7.00');

Lab note: each compound below needs its pIC50 filled in.
1. CN(C)CCOc1ccc2c(c1)N(c1nc(-c3ccc(Cl)s3)nc3c1CS(=O)(=O)C3)CC2
2. Cc1ccccc1-c1nc2c(c(N3CCc4ccc(OCC(=O)N(C)C)cc43)n1)C[S+]([O-])C2 (centres unmarked)

Ans.
1: 6.00 to 7.00; 2: 6.00 to 7.00

* * *

- experimental.system: human PDE4B1 (Homo sapiens)
- Construct: host or cells: Sf9 cells
- experiment.summary: cAMP HTRF assay to determine the activity of hPDE4B1
- Assay type: biochemical
- reported.conditions: Percentage inhibition of PDE4B at 1 μM test concentration
Exercise: for every item that follows, state its recorded inhibition at 1 µM.
Answers are plain numbers, in %.

Known inhibition at 1 µM results, listed for orientation:
INSERT INTO assay_data (compound, value_type, value_unit, result) VALUES
  ('O=C(O)c1ccc2c(c1)CCN2c1nc(-c2ccc(Cl)s2)nc2c1CCC2 [Compound No. 1-72]', 'inhibition at 1 µM', '%', 59),
  ('CN(C)C(=O)COc1ccc2c(c1)N(c1nc(-c3cccc(F)c3)nc3c1C[S+]([O-])C3)CC2 (stereo not drawn) [2-24]', 'inhibition at 1 µM', '%', 115);

Please examine the following record next.
So, O=C(O)Cc1ccc2c(c1)CCN2c1nc(-c2ccc3occc3c2)nc2c1C[S+]([O-])C2 (stereo not drawn) [Compound No. 1-81] ? Its inhibition at 1 µM was 106

The reported measurements were obtained from patent US9527832B2.
